# Target Of Assay: human M1 receptor (hCHRM1) (Homo sapiens)
# Construct: expressed in transfected cells
# Sequence (P11229 1-460): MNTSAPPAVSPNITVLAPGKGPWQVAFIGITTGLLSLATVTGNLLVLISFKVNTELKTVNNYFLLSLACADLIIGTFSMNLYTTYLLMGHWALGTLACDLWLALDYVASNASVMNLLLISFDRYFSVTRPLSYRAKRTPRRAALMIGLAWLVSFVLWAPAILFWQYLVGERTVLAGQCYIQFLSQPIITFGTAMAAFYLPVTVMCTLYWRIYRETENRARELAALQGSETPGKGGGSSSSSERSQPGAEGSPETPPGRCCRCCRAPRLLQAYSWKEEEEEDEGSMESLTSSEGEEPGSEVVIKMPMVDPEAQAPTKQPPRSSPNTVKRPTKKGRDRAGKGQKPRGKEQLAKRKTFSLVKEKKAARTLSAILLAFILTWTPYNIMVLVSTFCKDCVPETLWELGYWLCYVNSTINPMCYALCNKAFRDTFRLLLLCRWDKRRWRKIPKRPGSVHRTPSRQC
# Assay Comment: Measurement of M1 receptor positive allosteric modulator (M1PAM) activity, calcium fluorescence (FLIPRtetra) with acetylcholine at EC20
# Type: cell-based
# Condition: 10 μM test compound; 100% = acetylcholine 1 μM, 0% = DMSO; acetylcholine at EC20
Property Label: activity (%) at 10 μM

>>> measured_number("COc1cc2c(cc1Cc1ccc(-n3cccn3)cc1)C(=O)N([C@H]1CCCC[C@@H]1O)C2 (racemic) [Example 3]")
106
>>> measured_number("Cc1c(Cc2ccc(-c3cn(C)nn3)cc2)cc2c(c1C)CN(C[C@@H]1CCCO1)C2=O [Example 14]")
94
>>> measured_number("CNC(=O)c1ccc(Cc2cc3c(c(C)c2C)CN(C[C@@H]2CCCO2)C3=O)cc1F [Example 139]")
102
>>> measured_number("CCc1cc2c(cc1Cc1ccc(-c3ccn(C)n3)cc1)C(=O)N([C@H]1COCC[C@@H]1O)C2 [Example 116]")
111
>>> measured_number("Cc1c(Cc2ccc(-c3ccn(C)n3)cc2)cc2c(c1C)CN([C@H]1CCC[C@@H]1O)C2=O [Example 13]")
104
>>> measured_number("Cc1c(Cc2ccc(C(N)=O)cc2F)cc2c(c1C)CN([C@H]1COCC[C@@H]1O)C2=O (racemic) [Example 113]")
82
>>> measured_number("COc1ccc(Cc2cc3c(c(Cl)c2C)CN([C@H]2CCC[C@@H]2O)C3=O)cc1 [Example 152]")
91
>>> measured_number("Cc1c(Cc2ccc(-n3cccn3)cc2)cc2c(c1Cl)CN([C@H]1CCC[C@@H]1O)C2=O (racemic) [Example 102]")
91
>>> measured_number("O=C1c2cc(Cc3ccc(-n4cccn4)cc3)c(C(F)(F)F)c(Cl)c2CN1[C@H]1CCC[C@@H]1O (racemic) [Example 88]")
98
>>> measured_number("COc1ccc(Cc2cc3c(c(F)c2OC)CN([C@H]2COCC[C@@H]2O)C3=O)cc1 [Example 157]")
97

* * *

# Target Of Assay: human M1 receptor (hCHRM1) (Homo sapiens)
# Construct: expressed in transfected cells
# Sequence (P11229 1-460): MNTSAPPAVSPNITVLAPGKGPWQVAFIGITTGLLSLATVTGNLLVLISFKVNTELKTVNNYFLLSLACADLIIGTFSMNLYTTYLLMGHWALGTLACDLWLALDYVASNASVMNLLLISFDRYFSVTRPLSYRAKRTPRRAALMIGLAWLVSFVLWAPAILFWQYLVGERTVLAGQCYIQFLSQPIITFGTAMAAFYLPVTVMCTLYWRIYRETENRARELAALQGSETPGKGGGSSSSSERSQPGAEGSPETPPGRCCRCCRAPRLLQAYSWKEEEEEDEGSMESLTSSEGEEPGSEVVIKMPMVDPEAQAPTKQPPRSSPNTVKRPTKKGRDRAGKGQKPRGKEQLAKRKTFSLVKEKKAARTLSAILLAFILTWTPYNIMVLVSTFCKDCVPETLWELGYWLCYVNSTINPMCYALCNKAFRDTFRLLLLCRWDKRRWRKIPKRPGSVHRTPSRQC
# Assay Comment: Measurement of M1 receptor positive allosteric modulator (M1PAM) activity, calcium fluorescence (FLIPRtetra) with acetylcholine at EC20
# Type: cell-based
# Condition: 10 μM test compound; 100% = acetylcholine 1 μM, 0% = DMSO; acetylcholine at EC20
Property Label: activity (%) at 10 μM

>>> measured_number("CCc1cc2c(cc1Cc1ccc(-c3cn(C)nn3)cc1)C(=O)N([C@H]1CCC[C@@H]1O)C2 [Example 119]")
91
>>> measured_number("Cc1c(Cc2ccc(-c3ccn(C)n3)cc2)cc2c(c1C)CN(CC1CCCO1)C2=O (centres unmarked)")
105
>>> measured_number("Cc1ccc(Cc2cc3c(c(C)c2C)CN([C@H]2CCCC[C@@H]2O)C3=O)cn1")
90
>>> measured_number("Cc1c(Cc2ccc(-c3ccn(C)n3)cc2)cc2c(c1F)CN([C@H]1CCC[C@@H]1O)C2=O")
103
>>> measured_number("Cc1cc(-c2ccc(Cc3cc4c(cc3C)CN([C@H]3CCCC[C@@H]3O)C4=O)cn2)ccn1 (racemic)")
101
>>> measured_number("COc1ccc(Cc2cc3c(cc2C)CN([C@H]2CCCC[C@@H]2O)C3=O)cc1")
95
>>> measured_number("Cc1c(Cc2ccc(-n3cccn3)cc2)cc2c(c1C)CN(CC1CCCO1)C2=O (centres unmarked)")
90
>>> measured_number("Cn1cc(-c2ccc(Cc3ccc4c(c3)C(=O)N([C@H]3CCCC[C@@H]3O)C4)cn2)cn1 (racemic)")
111
